# Test system: DU145
# Test Method Notes: Euclidean distance of Cell Painting phenotypic profile (signed KS, 77 features) to DMSO centroid (dimensionless distance); 5 or 10 uM (library dependent); higher = stronger phenotypic change vs DMSO (phenoactivity)
# Setup Conditions: 48 h
Where a name gives a salt, the structure may show the parent alone.
Property Label: Euclidean distance
Could you respond with only the numeric value?

Nc1c(Br)cc(Br)cc1CN[C@H]1CC[C@H](O)CC1 : 0.867
CC(C)CC(N)=O [Isovaleramide] : 0.731
O=C(/C=C/c1ccccc1)NC(NC(=S)Nc1cccc2cccnc12)C(Cl)(Cl)Cl (stereo not given) : 1
CN(C)CCCN1c2ccccc2CCc2ccccc21 [Imipramine HCl] : 1.15
CS(=O)(=O)c1ccc([C@@H](O)[C@@H](CF)NC(=O)C(Cl)Cl)cc1 : 0.807
NC(N)=Nc1nc(CSCC/C(N)=N/S(N)(=O)=O)cs1 : 1.5

Please give the measured Euclidean distance for this molecule: CCC1(O)C(=O)OCc2c1cc1n(c2=O)Cc2c-1nc1ccccc1c2CCNC(C)C (stereo not given) [Belotecan (CKD-602) hydrochloride] 3.52

Please give the measured Euclidean distance for this molecule: "CCOC(=O)c1ccc(C#Cc2ccc3c(c2)C(C)(C)CCS3)nc1" 0.728

Please give the measured Euclidean distance for this molecule: CO/N=C(\C(=O)N[C@@H]1C(=O)N2C(C(=O)O)=C(COC(C)=O)CS[C@H]12)c1csc(N)n1 [Cefotaxime] 0.573

Please give the measured Euclidean distance for this molecule: "CN1CCN(c2c(F)cc3c(=O)c(C(=O)O)cn4c3c2OCN4C)CC1" 0.494

Please give the measured Euclidean distance for this molecule: C[C@H]1COC2(CCN(c3nc(=O)c4cc(C(F)(F)F)cc([N+](=O)[O-])c4s3)CC2)O1 (racemic) [BTZ043 Racemate] 1.01

====

# Test system: 786-O
# Test Method Notes: Euclidean distance of Cell Painting phenotypic profile (signed KS, 77 features) to DMSO centroid (dimensionless distance); 5 or 10 uM (library dependent); higher = stronger phenotypic change vs DMSO (phenoactivity)
# Setup Conditions: 48 h
Where a name gives a salt, the structure may show the parent alone.
Property Label: Euclidean distance
Could you respond with only the numeric value?

CCc1cc2c(cc1N1CCC(N3CCOCC3)CC1)C(C)(C)c1[nH]c3cc(C#N)ccc3c1C2=O [Alectinib hydrochloride] : 1.42

Okay, next one:
Please give the measured Euclidean distance for this molecule: CC1(C)[C@@H](O[C@H]2O[C@H](C(=O)O)[C@@H](O)[C@H](O)[C@H]2O[C@@H]2O[C@H](C(=O)O)[C@@H](O)[C@H](O)[C@H]2O)CC[C@]2(C)[C@H]3C(=O)C=C4[C@@H]5C[C@@](C)(C(=O)O)CC[C@]5(C)CC[C@@]4(C)[C@]3(C)CC[C@@H]12 [Glycyrrhizin (Glycyrrhizic Acid)] 1.52

====

Measured Euclidean distance values are reported for all entries that follow.
# Test system: OVCAR4
# Test Method Notes: Euclidean distance of Cell Painting phenotypic profile (signed KS, 77 features) to DMSO centroid (dimensionless distance); 5 or 10 uM (library dependent); higher = stronger phenotypic change vs DMSO (phenoactivity)
# Setup Conditions: 48 h
Structures can show the parent of a compound that is named as a salt.
Could you respond with only the numeric value?

C=C[C@@H]1C[C@]1(NC(=O)[C@@H]1C[C@@H](Oc2ncc(OC)c3ccc(Cl)cc23)CN1C(=O)[C@@H](NC(=O)OC(C)(C)C)C(C)(C)C)C(=O)NS(=O)(=O)C1CC1 : 1.08

Please give the measured Euclidean distance for this compound: CC1=C(/C=C/C(C)=C/C=C/C(C)=C/C(=O)Nc2ccc(O)cc2)C(C)(C)CCC1 [Fenretinide] 2.4

Please give the measured Euclidean distance for this compound: "Cc1nc(C#Cc2ccnc(Cl)c2)c(C)n1-c1ccc(OC(F)(F)F)cc1" 1.2

Please give the measured Euclidean distance for this compound: "O=c1cc(-c2ccc(O)cc2)oc2cc(O)cc(O)c12" 1.32

Please give the measured Euclidean distance for this compound: "CS(=O)(=O)c1ccc(C(=O)Nc2ccc(Cl)c(-c3ccccn3)c2)c(Cl)c1" 0.924

Please give the measured Euclidean distance for this compound: CNCCC(Oc1ccc(C(F)(F)F)cc1)c1ccccc1 (centres undefined) [Fluoxetine HCl] 1.71

Please give the measured Euclidean distance for this compound: CCN(CC)CCCC(C)Nc1nc(C)cc(Nc2ccc3nc(C)cc(N)c3c2)n1 (centres undefined) 1.16

Please give the measured Euclidean distance for this compound: CCOC(=O)[C@H](CCc1ccccc1)N[C@@H](C)C(=O)N1CCC[C@H]1C(=O)O [Enalapril Maleate] 1.28

Please give the measured Euclidean distance for this compound: CC[C@@]1(O)C(=O)OCc2c1cc1n(c2=O)Cc2cc3cc(O)ccc3nc2-1 [Hydroxy Camptothecine] 2.89

Please give the measured Euclidean distance for this compound: "O=c1ncn2nc(Sc3ccc(F)cc3F)ccc2c1-c1c(Cl)cccc1Cl" 1.55

Please give the measured Euclidean distance for this compound: "CCC(=O)O[C@@H]1CC(=O)O[C@H](C)C/C=C/C=C/[C@H](O)[C@H](C)C[C@H](CC=O)[C@H](O[C@@H]2O[C@H](C)[C@@H](O[C@H]3C[C@@](C)(O)[C@@H](OC(=O)CC)[C@H](C)O3)[C@H](N(C)C)[C@H]2O)[C@H]1OC" 1.07
